# Target system: ScSla1-D3
# Method summary: SPOT peptide array binding signal intensity (averaged, normalized) (arbitrary units (background-subtracted, floor 0; scale differs between SH3 domains)); higher = stronger binding of the SH3 domain to the peptide
Collected SPOT peptide array binding signal intensity values appear next to each entry.
Lab note: jot the number down without any unit.

Past entries and their recorded results:
>>> reported("ISNFVPPNLPMRRFK")
184
>>> reported("RTRRRPPPPPIPSTQ")
883
>>> reported("APKREAPKPPANTSP")
16.2
>>> reported("IKKRNKIRLPSGSPE")
30

## Input Tell me SPOT peptide array binding signal intensity reported for PPPPPPPPPPPLPQS
## Output 0.75

## Input Answer with reported SPOT peptide array binding signal intensity of GSKSGPPPRPKKPST
## Output 28

## Input Given the binder NQARKPFLLPATELS , write its reported SPOT peptide array binding signal intensity.
## Output 8
